# System: HBV rcDNA in HepDE19 cells
# assay: HepDE19 assay with bDNA quantitation of HBV rcDNA
# Assay type: cell-based, hepatitis B virus (HBV)
# experimental-setup: Hepatitis B virus, HepDE19, 168 h, inhibition of rcDNA formation in HepDE19 cells (HepG2 derived), Tet-free medium, 7 day incubation, Quantigene 2.0 bDNA readout, top concentration 25 μM; read-out: DE-19bDNA EC50
pEC50: −log10 of the molar value.
Rule: pEC50 under 7 gives 0, otherwise 1.

Worked examples follow.
1) CN(C(=O)Nc1ccc(F)c(Cl)c1)C1COCc2nc(NCCN)c3cc(F)c(F)cc3c21 (centres unmarked) : 0
2) CCN(C(=O)Nc1ccc(F)c(C#N)c1)C1COCc2[nH]c(=O)c3ccc(F)cc3c21 (centres unmarked) : 1
3) CN(C(=O)Nc1ccc(F)c(C#N)c1)[C@@H]1COCc2[nH]c(=O)c3cc(F)c(F)cc3c21 (single isomer, unassigned) : 1
4) CCN(C(=O)Nc1ccc(F)c(Cl)c1)C1COCc2[nH]c(=O)c3cc(F)c(F)cc3c21 (racemic) : 1
5) N#Cc1cc(NC(=O)N[C@@H]2COCc3[nH]c(=O)c4cc(F)c(F)cc4c32)ccc1F (single isomer, unassigned) : 1

Exercise: Please tell me: is the molecule CN(C(=O)Nc1ccc(F)c(Cl)c1)C1CCCc2[nH]c(=O)c3c(F)c(F)ccc3c21 (centres unmarked) at or over 7 in terms of pEC50?
Solution: 0

Exercise: Please tell me: is the molecule CN(C(=O)NC1(C(F)(F)F)CC1)C1CCCc2[nH]c(=O)c3cc(F)c(F)cc3c21 (centres unmarked) at or over 7 in terms of pEC50?
Solution: 0

Exercise: Please tell me: is the molecule CN1Cc2[nH]c(=O)c3cc(F)c(F)cc3c2C(N(C)C(=O)Nc2ccc(F)c(C#N)c2)C1 (single isomer, unassigned) [Compound 174] at or over 7 in terms of pEC50?
Solution: 0

Exercise: Please tell me: is the molecule CN(C(=O)Nc1ccc(F)c(Cl)c1)[C@@H]1COCc2[nH]c(=O)c3cc(F)ccc3c21 (single isomer, unassigned) at or over 7 in terms of pEC50?
Solution: 1

Exercise: Please tell me: is the molecule "CN(C(=O)Nc1ccc(F)c(C(F)F)c1)[C@@H]1COCc2nc(OCCN)c3cc(F)c(F)cc3c21" at or over 7 in terms of pEC50?
Solution: 1

Exercise: Please tell me: is the molecule CCN(C(=O)Nc1ccc(F)c(C)c1)C1COCc2[nH]c(=O)c3ccc(F)cc3c21 (centres unmarked) at or over 7 in terms of pEC50?
Solution: 1

Exercise: Please tell me: is the molecule "CN(C(=O)Nc1ccc(Cl)c(Cl)c1)[C@@H]1COCc2[nH]c(=O)c3cc(F)c(F)cc3c21" at or over 7 in terms of pEC50?
Solution: 1

Exercise: Please tell me: is the molecule CN(C(=O)Nc1ccc(F)c(Cl)c1)C1CCCc2[nH]c(=O)cc(C(F)(F)F)c21 (centres unmarked) at or over 7 in terms of pEC50?
Solution: 0

----------
# maps each entry to its pEC50
# System: HBV rcDNA in HepDE19 cells
# assay: HepDE19 assay with bDNA quantitation of HBV rcDNA
# Format: cell-based, hepatitis B virus (HBV)
# experimental-setup: Hepatitis B virus, HepDE19, 168 h, inhibition of rcDNA formation in HepDE19 cells (HepG2 derived), Tet-free medium, 7 day incubation, Quantigene 2.0 bDNA readout, top concentration 25 μM; read-out: DE-19bDNA EC50
Expect pEC50 as a plain number equal to -log10 of the molar concentration.

Use these answered entries as a reference point.
1) COc1nc2c(c3ccccc13)C(N(C)C(=O)Nc1ccc(F)c(Cl)c1)CCC2 (stereo not shown) [Compound 34] : 5.74
2) CN(C(=O)Nc1ccc(F)c(Cl)c1)[C@H]1COCc2[nH]c(=O)c3cc(F)c(F)cc3c21 (single isomer, unassigned) [Compound 71] : 6.68
3) CN(C(=O)Nc1ccc(F)c(C(F)F)c1)[C@@H]1COCc2c1c1cc(F)c(F)cc1c(=O)n2C [Compound 233] : 7.70

Form: compound = CN(C(=O)Nc1ccc(F)c(Cl)c1)[C@H]1COCc2[nH]c(=O)c3cc(F)ccc3c21 (single isomer, unassigned) [Compound 40] ; pEC50 = 6.00

----------
# Tested on: HBV rcDNA in HepDE19 cells
# assay: HepDE19 assay with bDNA quantitation of HBV rcDNA
# Assay type: cell-based, hepatitis B virus (HBV)
# experimental-setup: Hepatitis B virus, HepDE19, 168 h, inhibition of rcDNA formation in HepDE19 cells (HepG2 derived), Tet-free medium, 7 day incubation, Quantigene 2.0 bDNA readout, top concentration 25 μM; read-out: DE-19bDNA EC50
outcome-measure: pEC50
Expect pEC50 as a plain number equal to -log10 of the molar concentration.

Use these answered entries as a reference point.
1) CN(C(=O)Nc1ccc(F)c(Cl)c1)C1CCCc2[nH]c(=O)c3ccccc3c21 (racemic) : 7.10
2) CN(C(=O)Nc1cc(F)cc(Cl)c1)C1COCc2[nH]c(=O)c3ccccc3c21 (stereo not shown) : 6.92
3) CCN(C(=O)Nc1ccc(F)c(Cl)c1)[C@@H]1COCc2[nH]c(=O)c3cc(F)c(F)cc3c21 (single isomer, unassigned) : 8.00

Please turn your attention to the following entry.
Form: molecule = O=C(Nc1ccc(F)c(Cl)c1)N(CCCO)C1CCc2[nH]c(=O)c3ccccc3c21 (stereo not shown) ; pEC50 = 7.00

----------
# Test system: HBV rcDNA in HepDE19 cells
# assay: HepDE19 assay with bDNA quantitation of HBV rcDNA
# Assay type: cell-based, hepatitis B virus (HBV)
# experimental-setup: read-out: DE-19bDNA EC50; inhibition of rcDNA formation in HepDE19 cells (HepG2 derived), Tet-free medium, 7 day incubation, Quantigene 2.0 bDNA readout, top concentration 25 μM
pEC50: −log10 of the molar value.
Rule: pEC50 under 6 gives Not fulfilled, otherwise Fulfilled.

1. CN(C(=O)N1Cc2ccc(C(F)(F)F)cc2C1)C1CNCc2[nH]c(=O)c3cc(F)c(F)cc3c21 (single isomer, unassigned) : Not fulfilled
2. CN(C(=O)Nc1ccccc1)C1COCc2[nH]c(=O)c3cc(F)c(F)cc3c21 (single isomer, unassigned) [Compound 101] : Not fulfilled
3. CN(C(=O)Nc1ccccc1)C1COCc2[nH]c(=O)c3cc(F)c(F)cc3c21 (single isomer, unassigned) [Compound 102] : Fulfilled
4. CN(C(=O)Nc1cccc(Cl)c1)C1COCc2[nH]c(=O)c3cc(F)c(F)cc3c21 (single isomer, unassigned) [Compound 120] : Fulfilled

# ---- query molecule ----
Exercise: Please tell me: is the molecule CN(C(=O)Nc1cccc(Cl)c1)C1COCc2[nH]c(=O)c3cc(F)c(F)cc3c21 (single isomer, unassigned) [Compound 119] at or over 6 in terms of pEC50?
Solution: Not fulfilled

----------
# System: HBV rcDNA in HepDE19 cells
# assay: HepDE19 assay with bDNA quantitation of HBV rcDNA
# Format: cell-based, hepatitis B virus (HBV)
# experimental-setup: Hepatitis B virus, HepDE19, 168 h, inhibition of rcDNA formation in HepDE19 cells (HepG2 derived), Tet-free medium, 7 day incubation, Quantigene 2.0 bDNA readout, top concentration 25 μM; read-out: DE-19bDNA EC50
# From the text: HepDE19 Assay with bDNA Quantitation of HBV rcDNA: HepDE19 cell culture system is a HepG2 (human hepatocarcinoma) derived cell line that supports HBV DNA replication and cccDNA formation in a tetracycline (Tet)-regulated manner and produces HBV rcDNA and a detectable reporter molecule dependent on the production and maintenance of cccDNA (Guo, et al., 2007, J. Virol. 81:12472-12484). […]
outcome-measure: pEC50
Expect pEC50 as a plain number equal to -log10 of the molar concentration.

1) CN(C(=O)Nc1ccc(F)c(Cl)c1)C1COCc2[nH]c(=O)c3cc(C#N)ccc3c21 (stereo not drawn) : 5.96
2) O=C(Nc1ccc(F)c(Cl)c1)N(CCCO)C1CCCc2[nH]c(=O)c3ccccc3c21 (stereo not drawn) : 6.12
3) CN(C(=O)Nc1ccc(F)c(Cl)c1)C1COC(=O)c2[nH]c(=O)c3cc(F)c(F)cc3c21 (racemic) : 7.70
4) CC(C)CN(C(=O)Nc1ccc(F)c(Cl)c1)C1CCCc2[nH]c(=O)c3ccccc3c21 (stereo not drawn) : 6.33
5) CCN(C(=O)Nc1ccc(F)c(Cl)c1)C1COCc2[nH]c(=O)c3cc(Cl)ccc3c21 (stereo not drawn) : 7.30

Recorded pEC50 for Cc1cc(NC(=O)N(C)[C@@H]2COCc3[nH]c(=O)c4cc(F)c(F)cc4c32)ccc1F (single isomer, unassigned) on HBV rcDNA in HepDE19 cells was 8.00

Recorded pEC50 for CC(C)CN(C(=O)Nc1ccc(F)c(Cl)c1)C1CCc2[nH]c(=O)c3ccccc3c21 (stereo not drawn) on HBV rcDNA in HepDE19 cells was 5.89

Recorded pEC50 for CCN(C(=O)Nc1ccc(F)c(C#N)c1)C1COCc2[nH]c(=O)c3cc(Cl)ccc3c21 (stereo not drawn) on HBV rcDNA in HepDE19 cells was 7.30

# credit: patent US20230108906A1
